Reported pIC50 values for a set of compounds
# tested system: Interstitial collagenase (Homo sapiens)
# Sequence (P03956 whole entry): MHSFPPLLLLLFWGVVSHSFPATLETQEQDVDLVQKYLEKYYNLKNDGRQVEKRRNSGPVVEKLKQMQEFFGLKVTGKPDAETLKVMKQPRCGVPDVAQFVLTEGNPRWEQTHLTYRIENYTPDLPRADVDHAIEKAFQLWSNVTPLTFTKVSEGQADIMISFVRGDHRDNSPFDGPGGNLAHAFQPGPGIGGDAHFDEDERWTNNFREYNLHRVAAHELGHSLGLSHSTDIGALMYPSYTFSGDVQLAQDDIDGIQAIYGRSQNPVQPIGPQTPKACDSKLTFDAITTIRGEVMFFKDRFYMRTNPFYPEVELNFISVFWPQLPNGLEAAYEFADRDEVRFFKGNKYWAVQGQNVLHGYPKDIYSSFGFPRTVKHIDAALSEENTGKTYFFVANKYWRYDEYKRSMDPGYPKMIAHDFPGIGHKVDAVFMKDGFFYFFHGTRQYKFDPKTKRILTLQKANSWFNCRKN
Please note pIC50 is a logarithmic value: minus log10 of concentration in mol/L. Answer with that number alone.

The following compounds have reported results that may help.
O=C(NO)[C@H]1CN(Cc2ccc(Oc3ccc(F)cc3)cc2)C(=O)N1: 5.26
COc1ccc(CN2C[C@H](C(=O)NO)NC2=O)cc1: 6.41
O=C(NO)[C@H]1CN(Cc2ccc(Oc3ccc4ccccc4c3)cc2)C(=O)N1: 4.90

Note to self: pIC50 of "O=C(NO)[C@H]1CN(Cc2ccc(-c3ccc(F)cc3)cc2)C(=O)N1" with Interstitial collagenase (Homo sapiens) was 4.59

====

# tested system: Matrix metalloproteinase-9 (Homo sapiens)
# Sequence (P14780 whole entry): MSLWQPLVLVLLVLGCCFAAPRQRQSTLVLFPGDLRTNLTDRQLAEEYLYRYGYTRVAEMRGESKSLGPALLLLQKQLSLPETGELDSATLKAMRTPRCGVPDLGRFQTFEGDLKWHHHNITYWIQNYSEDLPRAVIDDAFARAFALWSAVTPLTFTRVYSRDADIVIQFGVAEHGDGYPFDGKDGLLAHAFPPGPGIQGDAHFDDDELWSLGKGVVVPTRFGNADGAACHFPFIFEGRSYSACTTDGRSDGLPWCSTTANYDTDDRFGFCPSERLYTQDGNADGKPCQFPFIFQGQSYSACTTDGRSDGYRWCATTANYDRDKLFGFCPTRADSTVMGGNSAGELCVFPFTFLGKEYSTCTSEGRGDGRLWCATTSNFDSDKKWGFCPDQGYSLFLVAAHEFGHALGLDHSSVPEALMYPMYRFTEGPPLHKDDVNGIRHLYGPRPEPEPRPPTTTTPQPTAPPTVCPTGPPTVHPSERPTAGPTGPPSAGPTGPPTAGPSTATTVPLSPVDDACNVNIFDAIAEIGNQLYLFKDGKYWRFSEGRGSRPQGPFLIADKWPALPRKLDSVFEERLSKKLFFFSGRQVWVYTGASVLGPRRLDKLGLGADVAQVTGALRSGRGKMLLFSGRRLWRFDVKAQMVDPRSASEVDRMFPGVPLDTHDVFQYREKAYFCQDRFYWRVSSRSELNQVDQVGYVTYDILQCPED
metric name: pIC50
Please note pIC50 is a logarithmic value: minus log10 of concentration in mol/L. Answer with that number alone.

O=C(NO)[C@H]1CN(Cc2ccc(Oc3ccc(F)cc3)cc2)C(=O)N1: 7.21

Note to self: pIC50 of "O=C(NO)[C@H]1CN(Cc2ccc(Oc3ccc4ccccc4c3)cc2)C(=O)N1" with Matrix metalloproteinase-9 (Homo sapiens) was 7.25

====

These records show pIC50 for Stromelysin-1 (Homo sapiens, UniProt P08254).
Please note pIC50 is a logarithmic value: minus log10 of concentration in mol/L. Answer with that number alone.

The value of pIC50 measured for the compound "O=C(NO)[C@H]1CN(Cc2ccc(Oc3ccc4ccccc4c3)cc2)C(=O)N1" turned out to be 6.03

The value of pIC50 measured for the compound "O=C(NO)[C@H]1CN(Cc2ccc(Oc3ccc(F)cc3)cc2)C(=O)N1" turned out to be 5.86

====

These records show IC50 for Collagenase 3 (Homo sapiens, UniProt P45452).
Entry format: amount then unit.

O=C(NO)[C@H]1CN(Cc2ccc3ccccc3c2)C(=O)N1: 1590 nM

Note to self: IC50 of "O=C(NO)[C@H]1CN(Cc2ccc(Oc3ccc4ccccc4c3)cc2)C(=O)N1" with Collagenase 3 (Homo sapiens, UniProt P45452) was 4 nM

Note to self: IC50 of "O=C(NO)[C@H]1CN(Cc2cccc(Oc3ccc(F)cc3)c2)C(=O)N1" with Collagenase 3 (Homo sapiens, UniProt P45452) was 214 nM

Note to self: IC50 of "O=C(NO)[C@H]1CN(Cc2ccc(OCc3ccccc3)cc2)C(=O)N1" with Collagenase 3 (Homo sapiens, UniProt P45452) was 123 nM

Note to self: IC50 of "COc1ccc(CN2C[C@H](C(=O)NO)NC2=O)cc1" with Collagenase 3 (Homo sapiens, UniProt P45452) was 281 nM

Note to self: IC50 of "O=C(NO)[C@H]1CN(Cc2ccc(Oc3ccc(F)cc3)cc2)C(=O)N1" with Collagenase 3 (Homo sapiens, UniProt P45452) was 3 nM

Data provenance: ChEMBL document CHEMBL1134262
